Overview of reported Dmax across a group of compounds:
TGT: IRAK-4 (Homo sapiens)
Sequence (Q9NWZ3 whole entry): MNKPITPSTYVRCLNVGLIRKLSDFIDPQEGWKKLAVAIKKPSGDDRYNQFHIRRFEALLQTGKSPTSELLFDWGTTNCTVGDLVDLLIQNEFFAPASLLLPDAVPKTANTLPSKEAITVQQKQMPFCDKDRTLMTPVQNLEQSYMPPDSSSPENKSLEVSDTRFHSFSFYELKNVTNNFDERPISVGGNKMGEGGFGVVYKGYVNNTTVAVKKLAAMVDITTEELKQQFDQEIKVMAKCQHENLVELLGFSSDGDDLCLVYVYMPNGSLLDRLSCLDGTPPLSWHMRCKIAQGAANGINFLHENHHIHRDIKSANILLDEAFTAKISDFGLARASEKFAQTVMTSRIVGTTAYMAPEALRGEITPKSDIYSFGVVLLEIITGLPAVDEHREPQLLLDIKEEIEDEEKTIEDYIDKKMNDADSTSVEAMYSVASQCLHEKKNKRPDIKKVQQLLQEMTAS
TEST_METHOD_NOTES: IRAK-4 ELISA, PBMC degradation
Assay type: cell-based
Parameters: endogenous in cells; host or cells: PBMC
REPORTED_CONDITIONS: treated overnight
Protocol: Reagents: Human IRAK-4 Matched Antibody Pair Kit (Abcam ab218182) and ELISA Accessory Pack (Abcam ab210905). Cell Treatment and Lysis: 1. OCI-Ly10: 200,000 cells are seeded at 1×10^6/ml in 96-well U-bottom plates 200 ul per well, treated with compound the same day. Incubate overnight. 2. PBMC: 800,000 cells are seeded at 2×10^6/ml in 96-well U-bottom deep-well plates, 400 ul per well, treated with compound the same day. […] Cell lysate is collected and analyzed by ELISA for IRAK-4 levels.

1. CC(C)Oc1cc2nn(C3CN(CC4(F)CCN(c5ccc6c(c5)C(=O)N(C5CCC(=O)NC5=O)C6=O)CC4)C3)cc2cc1NC(=O)c1cnn2cccnc12 (stereo not shown) [Example 194] ... ≥ 90%
2. CC(C)Oc1nc2nn(C3CCN(CC4(F)CN(c5ccc6c(c5)CN(C5CCC(=O)NC5=O)C6=O)C4)CC3)cc2cc1NC(=O)c1cnn2cccnc12 (stereo not shown) [Example 416] ... 80 to 90%
3. CC(C)Oc1cc2nn(C3CCN(CC4(F)CN(c5ccc(C(=O)NC6CCC(=O)NC6=O)c(F)c5)C4)CC3)cc2cc1NC(=O)c1cnn2cccnc12 (stereo not shown) [Example 293] ... ≥ 90%
4. CCN(C1CN(c2ccc(C(=O)NC3CCC(=O)NC3=O)c(F)c2)C1)[C@H]1CC[C@H](n2cc3cc(NC(=O)c4cnn5cccnc45)c(OCC4CC4)cc3n2)CC1 (stereo partly shown) [Example 369] ... ≥ 90%
5. CC(C)Oc1cc2c(cc1NC(=O)c1cnn3cccnc13)CN([C@H]1CC[C@H](N(C)CC3(F)CN(c4ccc5c(c4)C(=O)N(C4CCC(=O)NC4=O)C5=O)C3)CC1)C2=O (stereo partly shown) [Example 365] ... ≥ 90%

// Dmax lookup, compound = O=C1CCC(N2C(=O)c3ccc(N4CC(F)(CN5CCC(n6cc7cc(NC(=O)c8cnn9cccnc89)c(OC8CCC8)cc7n6)CC5)C4)cc3C2=O)C(=O)N1 (stereo not shown) [Example 196] , result: 80 to 90%

Data point: O=C1CCC(N2C(=O)c3ccc(N4CC(CN5CCC(N6Cc7cc(NC(=O)c8cnn9cccnc89)c(OCC(F)F)cc7C6=O)CC5)C4)cc3C2=O)C(=O)N1 (stereo not shown) [Example 103] ; Dmax = 80 to 90%

Reported Dmax of CC(C)Oc1cc2c(cc1NC(=O)c1cnn3cccnc13)CN(C1CCN(C3CCN(c4ccc5c(c4)C(=O)N(C4CCC(=O)NC4=O)C5=O)CC3)CC1)C2=O (stereo not shown) [Example 64] : ≥ 90%

# Dmax (compound: O=C1CCC(N2C(=O)c3ccc(N4CC(N(CC(F)(F)F)C5CCC(n6cc7cc(NC(=O)c8cnn9cccnc89)c(OCC8CC8)cc7n6)CC5)C4)cc3C2=O)C(=O)N1 (stereo not shown) [Example 327] ) is 80 to 90%

The compound identified as O=C1CCC(N2C(=O)c3ccc(N4CC(CN5CCC(N6Cc7cc(NC(=O)c8cnn9cccnc89)c(N8CCC(N9CCC9)CC8)cc7C6=O)CC5)C4)cc3C2=O)C(=O)N1 (stereo not shown) [Example 98] registered its Dmax at 70 to 80%

Dmax recorded for this compound, CC(C)Oc1cc2c(cc1NC(=O)c1cnn3cccnc13)CN(C1CCN(CCOCCOc3ccc4c(c3)CN(C3CCC(=O)NC3=O)C4=O)CC1)C2=O (stereo not shown) [Example 2] , is ≥ 90%

The reported value for COc1cc(N2CCC(CN3CCC(n4cc5cc(NC(=O)c6cnn7cccnc67)c(OCC6CC6)cc5n4)CC3)CC2)cc2c1C(=O)N(C1CCC(=O)NC1=O)C2 (stereo not shown) [Example 132] in terms of Dmax is ≥ 90%

The compound COc1cc(N2CC(CN3CCC(N4Cc5cc(NC(=O)c6cnn7cccnc67)c(OC(C)C)cc5C4=O)CC3)C2)cc2c1C(=O)N(C1CCC(=O)NC1=O)C2 (stereo not shown) [Example 21] showed Dmax equal to ≥ 90%

Entry under test: CC(C)Oc1cc2c(cc1NC(=O)c1cnn3cccnc13)CN(C1CCN(C(C)(C)C3CCN(c4ccc5c(c4)C(=O)N(C4CCC(=O)NC4=O)C5=O)CC3)CC1)C2=O (stereo not shown) [Example 82] . Its Dmax was ≥ 90%

Per the records, this compound ( CC(C)(C1CCN(c2ccc3c(c2)C(=O)N(C2CCC(=O)NC2=O)C3=O)CC1)N1CCC(n2cc3cc(NC(=O)c4cnn5cccnc45)c(OCC4CC4)cc3n2)CC1 (stereo not shown) [Example 230] ) has Dmax equal to ≥ 90%

Looking up CCN(C1CN(c2ccc3c(c2)C(=O)N(C2CCC(=O)NC2=O)C3=O)C1)[C@H]1CC[C@H](n2cc3cc(NC(=O)c4cnn5cccnc45)c(OC(C)C)cc3n2)CC1 (stereo partly shown) [Example 319] , I see its Dmax listed as 80 to 90%

Measured Dmax of O=C1CCC(N2C(=O)c3cccc(N4CC(F)(CN5CCC(n6cc7cc(NC(=O)c8cnn9cccnc89)c(OCC8CC8)cc7n6)CC5)C4)c3C2=O)C(=O)N1 (stereo not shown) [Example 270] : < 70%

Entry COc1c(N2CC(CN3CCC(n4cc5cc(NC(=O)c6cnn7cccnc67)c(OCC6CC6)cc5n4)CC3)C2)ccc2c1C(=O)N(C1CCC(=O)NC1=O)C2=O (stereo not shown) [Example 285] ; Dmax = 80 to 90%

# Dmax (compound: O=C1CCC(N2C(=O)c3ccc(N4CCC5(CC4)CC(CN4CCC(n6cc7cc(NC(=O)c8cnn9cccnc89)c(OCC8CC8)cc7n6)CC4)C5)cc3C2=O)C(=O)N1 (stereo not shown) [Example 261] ) is ≥ 90%

For this compound ( O=C1CCC(N2C(=O)c3ccc(N4CC(F)(CN5CCC(n6cc7cc(NC(=O)c8cnn9ccc(N%10CCOCC%10)nc89)c(OCC8CC8)cc7n6)CC5)C4)cc3C2=O)C(=O)N1 (stereo not shown) [Example 233] ), measured Dmax is 80 to 90%

Record CN(C1CCC(n2cc3cc(NC(=O)c4cnn5cccnc45)c(OCC4CC4)cc3n2)CC1)C1CN(c2ccc3c(c2)C(=O)N(C2CCC(=O)NC2=O)C3)C1 (stereo not shown) [Example 355] , field Dmax: 80 to 90%

Reported Dmax ( O=C1CCC(N2C(=O)c3ccc(N4CC(F)(CN5CCC(N6Cc7cc(NC(=O)c8cnn9cccnc89)c(OCC(F)F)cc7C6=O)CC5)C4)cc3C2=O)C(=O)N1 (stereo not shown) [Example 102] ) = 70 to 80%
